Source: patent US10577349B2

Molecular target: HCV cap-dependent translation
Assay: In vitro translation assay, FF-HCV-Ren construct, cap-dependent (FF luciferase)

- Compound: "O=C(/C=C/c1nc2ccccc2[nH]1)c1c(-c2ccccc2)c2cc(F)ccc2[nH]c1=O [Compound 20]"
  IC50: "10 to 20 µM"
- Compound: "O=C(/C=C/c1cncc(F)c1)c1c(-c2cncc(Cl)c2)c2cc(Cl)ccc2[nH]c1=O [Compound 101]"
  IC50: "10 to 20 µM"
- Compound: "O=C(/C=C/c1ccncc1)c1c(-c2ccccc2)c2ccncc2[nH]c1=O [Compound 23]"
  IC50: "> 20 µM"
- Compound: "O=C(/C=C/c1ccc(F)c(F)c1)c1c(-c2ccccc2)c2cc(Cl)ccc2[nH]c1=O [Compound 40]"
  IC50: "2 to 10 µM"
- Compound: "COc1cncc(/C=C/C(=O)c2c(-c3ccccc3)c3cc(Cl)ccc3[nH]c2=O)c1 [Compound 66]"
  IC50: "2 to 10 µM"
- Compound: "O=C(/C=C/c1nc2ccccc2[nH]1)c1c(C2CCCCC2)c2cc(Cl)ccc2[nH]c1=O [Compound 11]"
  IC50: "2 to 10 µM"
- Compound: "O=C(/C=C/c1nc2cc(Cl)c(Cl)cc2[nH]1)c1c(-c2ccccc2)c2cc(Cl)ccc2[nH]c1=O [Compound 63]"
  IC50: "2 to 10 µM"
- Compound: "O=C(/C=C/c1ccc(F)cc1F)c1c(-c2ccccc2)c2cc(Cl)ccc2[nH]c1=O [Compound 41]"
  IC50: "2 to 10 µM"
- Compound: "O=C(/C=C/c1ccccc1)c1c(-c2cccnc2)c2cc(Cl)ccc2[nH]c1=O [Compound 7]"
  IC50: "10 to 20 µM"
- Compound: "O=C(/C=C/c1cncc(F)c1)c1c(-c2cncc(Br)c2)c2cc(Cl)ccc2[nH]c1=O [Compound 103]"
  IC50: "10 to 20 µM"
- Compound: "O=C(/C=C/c1nc2cc(Cl)ccc2[nH]1)c1c(-c2ccccc2)c2cc(Cl)ccc2[nH]c1=O [Compound 62]"
  IC50: "2 to 10 µM"
- Compound: "O=C(/C=C/c1cccnc1)c1c(-c2ccccc2)c2cc(Cl)ccc2[nH]c1=O [Compound 32]"
  IC50: "2 to 10 µM"
- Compound: "O=C(/C=C/c1ccc(Cl)cc1)c1c(-c2ccccc2)c2cc(Cl)ccc2[nH]c1=O [Compound 33]"
  IC50: "2 to 10 µM"
- Compound: "O=C(CCc1nc2ccccc2[nH]1)c1c(-c2ccccc2)c2cc(Cl)ccc2[nH]c1=O [Compound 68]"
  IC50: "> 20 µM"
- Compound: "COc1ccnc(/C=C/C(=O)c2c(-c3ccccc3)c3cc(Cl)ccc3[nH]c2=O)c1 [Compound 75]"
  IC50: "2 to 10 µM"
- Compound: "O=C(/C=C/c1nc2ccccc2n1Cc1ccccc1)c1c(-c2ccccc2)c2cc(Cl)ccc2n(Cc2ccccc2)c1=O [Compound 56]"
  IC50: "10 to 20 µM"
